Kindly supply the reported TGI values for the records listed here.
System: LXFL 529 NSCLC
Assay: NCI tumour cell line growth inhibition, 48 h
Give the number; µM is assumed, so skip it.

Reading of TGI for C=CCCC12CCCC(=O)C1Sc1ccc3ccccc3c12 (centres undefined) with LXFL 529 NSCLC: 33.2

Reading of TGI for [O-]c1c(-c2ccccc2)[se]c(-c2ccccc2)[n+]1-c1ccccc1 with LXFL 529 NSCLC: 27.8

----------
Test system: OVCAR-8 ovarian
Assay: NCI tumour cell line growth inhibition, 48 h
observed.property: TGI (µM)
Give the number; µM is assumed, so skip it.

Value of measured TGI for the entry CN1CCN(c2ccc3nc(-c4ccc5nc(-c6ccc(C(F)(F)F)cc6)[nH]c5c4)[nH]c3c2)CC1 : 4.7

Value of measured TGI for the entry COc1ccc(S(=O)(=O)N2CCCCC2)cc1NC(=O)c1[nH]c(C)c2c1CCCCC2=O : 46.6

Value of measured TGI for the entry CCCCCCCCCCCCCC/C(=C/OCC[N+](C)(C)C)OC(C)=O (tested in a mixture with another compound) : 4.15

Value of measured TGI for the entry O=C(Oc1ccccc1Cl)c1cccnc1Nc1ccnc(C(F)(F)F)c1 : 47

Value of measured TGI for the entry COc1cccc(NC(=O)c2ccc(C(F)(F)F)nc2Nc2ccc(Cl)cc2C)c1 : 24.1

----------
Kindly supply the reported GI50 values for the records listed here.
System: OVCAR-4 ovarian
Assay: NCI tumour cell line growth inhibition, 48 h

Value of measured GI50 for the entry COc1ccc(OC)c(-c2cn3nc(-c4c[nH]c5ccc(Br)cc45)sc3n2)c1 : 1.8 µM

Value of measured GI50 for the entry c1ccc(CN2CCC3(CC2)ONC2=NCCN23)cc1 : > 100 µM

Value of measured GI50 for the entry COc1ccc(S(=O)(=O)N2CCCCC2)cc1NC(=O)c1[nH]c(C)c2c1CCCCC2=O : 2.11 µM

Value of measured GI50 for the entry CC(=O)[CH-]C(=O)c1ccccc1.CC(=O)[CH-]C(=O)c1ccccc1.CC(C)CCCC(C)[C@H]1CCC2[C@@H]3CCC4C[C@@H]([O-])CC[C@]4(C)C3CC[C@@]21C.CC(C)CCCC(C)[C@H]1CCC2[C@@H]3CCC4C[C@@H]([O-])CC[C@]4(C)C3CC[C@@]21C.Cl.[Ti+4] (some centres not stated) : > 25 µM

Value of measured GI50 for the entry CC(=O)[CH-]C(=O)c1ccccc1.CC(=O)[CH-]C(=O)c1ccccc1.[O-]c1ccc(O)cc1.[O-]c1ccc(O)cc1.[Ti+4] : 18.2 µM

Value of measured GI50 for the entry COc1ccc(CNCCCN2C(=O)c3ccc4c5c(ccc(c35)C2=O)C(=O)N(CCCNCCCCNCCCN)C4=O)c(OC)c1OC : 1.02 µM

Value of measured GI50 for the entry CC(=O)OC1C(O)COC(Oc2c(C)c3c4c(c2O)[C@@H](C)CC[C@@H]4[C@@H](C)C[C@H]3C=C(C)C)C1O (some centres not stated) : 16.8 µM

----------
Tested on: NCI-H23 lung
Assay: NCI tumour cell line growth inhibition, 48 h
Kindly supply the reported TGI values for the records listed here.

Value of measured TGI for the entry CC(=O)[CH-]C(=O)c1ccccc1.CC(=O)[CH-]C(=O)c1ccccc1.CC(C)CCCC(C)[C@H]1CCC2[C@@H]3CCC4C[C@@H]([O-])CC[C@]4(C)C3CC[C@@]21C.CC(C)CCCC(C)[C@H]1CCC2[C@@H]3CCC4C[C@@H]([O-])CC[C@]4(C)C3CC[C@@]21C.Cl.[Ti+4] (some centres undefined) : > 25 µM

Value of measured TGI for the entry Cc1nc(SCC(=O)Nc2ccccc2)c2sc(=S)n(-c3ccccc3)c2n1 : > 10 µM

Value of measured TGI for the entry COc1cccc(C(=O)O)c1Cc1cccc2ccccc12 : > 100 µM

Value of measured TGI for the entry N=c1nc(N)nc(N)n1-c1ccc(S(N)(=O)=O)cc1 : > 100 µM

Value of measured TGI for the entry CCC(=O)[O-].CCC(=O)[O-].N.N.N.N.[Co+3].[O-][Cl+3]([O-])([O-])[O-] : > 100 µM

Value of measured TGI for the entry COC(=O)C1=C(O)C(C(=O)OC)[C@@]2(O)[C@@H](C(=O)OC)C(c3ccc(OC(=O)/C(=C/c4ccccc4)c4ccccc4)cc3)C[C@@H]1[C@@H]2C(=O)OC (some centres undefined) : > 100 µM

Value of measured TGI for the entry COc1ccc(-n2c(C)nc3ccc(N=Cc4ccccc4)cc3c2=O)cc1 : > 100 µM

Value of measured TGI for the entry COC(=O)c1ccc(/C=N/c2cc(C)nn2-c2ccccc2)cc1 : > 100 µM

Value of measured TGI for the entry CCCN(CCC)c1ccc(C=O)c(OC)c1 : > 100 µM

Value of measured TGI for the entry CC(C)(C)c1ccc(NC(=O)c2cc(=O)c3ccccc3[nH]2)c(C(C)(C)C)c1O : 14.1 µM

Value of measured TGI for the entry Cc1nnc2nc(-c3ccc(Cl)cc3Cl)cc(-c3ccc(Cl)cc3)n12 : > 100 µM

Value of measured TGI for the entry C/C(CC(=O)Nc1ccc(C)cc1)=N\NC(N)=S : > 100 µM

Value of measured TGI for the entry Cc1occc1C(=S)Nc1ccc(Cl)c(C(=O)OCC2CC2)c1 : > 100 µM

Value of measured TGI for the entry Nc1nc(N)c2ncn(Cc3c(Cl)cccc3Cl)c2n1 : > 100 µM

Value of measured TGI for the entry CCOP(=O)(C/C(=N/NC(C)(C)C)C(=O)Nc1nc2ccc(C)cc2s1)OCC : > 100 µM

Value of measured TGI for the entry CN([N-]C(=O)CC(=O)[N-]N(C)C(=S)c1ccccc1)C(=S)c1ccccc1.[Cu+2] : 0.141 µM

Value of measured TGI for the entry CNC1=C(Br)C(=O)C2=C(C1=O)C1C3=C(C(=O)C=CC3=O)C2c2ccccc21 (centres undefined) : 25.9 µM

Value of measured TGI for the entry CC1(Br)C(=O)NC(=O)N([C@H]2C[C@H](O)[C@@H](CO)O2)C1N=[N+]=[N-] (some centres undefined) : > 100 µM

Value of measured TGI for the entry Cn1cc(C=C(C#N)C#N)c(=O)n(C)c1=O : > 100 µM

----------
System: HCT-116 colon
Test: NCI tumour cell line growth inhibition, 48 h
observed.property: GI50

Value of measured GI50 for the entry O=C(/C=C/c1ccccc1)c1ccc(O)c(CN2CCN(c3cc4c(cc3F)c(=O)c(C(=O)O)cn4C3CC3)CC2)c1 : 0.43 µM

Value of measured GI50 for the entry CC(=O)[CH-]C(=O)c1ccccc1.CC(=O)[CH-]C(=O)c1ccccc1.CC(C)CCCC(C)[C@H]1CCC2[C@@H]3CCC4C[C@@H]([O-])CC[C@]4(C)C3CC[C@@]21C.CC(C)CCCC(C)[C@H]1CCC2[C@@H]3CCC4C[C@@H]([O-])CC[C@]4(C)C3CC[C@@]21C.Cl.[Ti+4] (some centres not stated) : > 25 µM

Value of measured GI50 for the entry C[C@]1(O)CC(=O)[C@]2(O)C3=C(C=C[C@]2(O)C1)C(=O)c1c(O)cccc1C3=O : 0.649 µM

Value of measured GI50 for the entry COc1cc(C(C)c2cc3c(cc2OCCOCCOc2cc4c(cc2C(C)c2cc(OC)c(OC)c(OC)c2)OCO4)OCO3)cc(OC)c1OC (configuration not stated) : > 100 µM

Value of measured GI50 for the entry COc1cccc(NC(=O)c2ccc(C(F)(F)F)nc2Nc2ccc(Cl)cc2C)c1 : 10.9 µM

Value of measured GI50 for the entry CCCN(CCC)c1ccc(C=O)c(OC)c1 : 25.5 µM

Value of measured GI50 for the entry CCCCCCCCOC(=O)c1cc(O)c(O)c(O)c1 : 1.97 µM

Value of measured GI50 for the entry O=c1cc(-c2ccccc2)oc2cc(OCc3cn(Cc4ccc(F)cc4)nn3)cc(O)c12 : 5.91 µM

Value of measured GI50 for the entry CCN(CCc1ccc(F)cc1)c1ccc(CO)c(Cl)c1 : 1.85 µM

Value of measured GI50 for the entry CCC(=O)[O-].CCC(=O)[O-].N.N.N.N.[Co+3].[O-][Cl+3]([O-])([O-])[O-] : > 100 µM

Value of measured GI50 for the entry CNC1=C(Br)C(=O)C2=C(C1=O)C1C3=C(C(=O)C=CC3=O)C2c2ccccc21 (configuration not stated) : 1.44 µM

Value of measured GI50 for the entry CC(=O)[CH-]C(=O)c1ccccc1.CC(=O)[CH-]C(=O)c1ccccc1.[O-]c1ccc(O)cc1.[O-]c1ccc(O)cc1.[Ti+4] : 15.1 µM

----------
Tested on: NCI-H226 lung
Experiment: NCI tumour cell line growth inhibition, 48 h
observed.property: TGI (µM)
Give the number; µM is assumed, so skip it.

Value of measured TGI for the entry C=C(/C=C/C=C(/CCC=C(C)C)COC(C)=O)[C@@H]1CC[C@]2([C@H](CCCO)/C(=C(/C)C=O)CC[C@]2(C)O)[C@@H]1O : 19.6

Value of measured TGI for the entry COc1cc(CSc2ccc(O)cc2)cc(O)c1O : 65.5

Value of measured TGI for the entry CCCCCCCCOC(=O)c1cc(O)c(O)c(O)c1 : 29

Value of measured TGI for the entry COc1cc(/C=C\c2cc(/C=C\c3ccc(O)c(OC)c3)n(C(=O)Nc3ccc(C(F)(F)F)cc3)n2)ccc1O : 27.6

Value of measured TGI for the entry C[C@@H]1O[C@@H]2OCC[C@@H]2C2=C1C(=O)c1ccccc1C2=O : 61.5

Value of measured TGI for the entry COc1cccc(NC(=O)c2ccc(C(F)(F)F)nc2Nc2ccc(Cl)cc2C)c1 : 34.8

Value of measured TGI for the entry CSc1ccc2c(cc1=O)C(NC(=O)c1cc(O)c(OC(=O)O)c(O)c1)CCc1cc(O)c(O)c(O)c1-2 (stereo unspecified) : 62.3

Value of measured TGI for the entry C/C(=N/NC(=S)Nc1cccc(Cl)c1)c1cccc(/C(C)=N\NC(=S)Nc2cccc(Cl)c2)n1 : 5.44

Value of measured TGI for the entry O=C(N/N=C/c1cc(Br)cc(Br)c1[O-])c1ccccc1O.O=C(N/N=C/c1cc(Br)cc(Br)c1[O-])c1ccccc1O.[Cl-].[Fe+3] : 4.97

Value of measured TGI for the entry CCCCn1c(=O)c(/C=C/C(=O)/C=C/c2ccc(O)c(OC)c2)cc2ccc(Cl)cc21 : 4.23
